- test.system: human GPR119 (Homo sapiens, UniProt Q8TDV5)
- Construct: expression vector for human GPR119 cDNA (Acc. No. NP_848566); Min-6/hGPR119
- Sequence (Q8TDV5 1-335): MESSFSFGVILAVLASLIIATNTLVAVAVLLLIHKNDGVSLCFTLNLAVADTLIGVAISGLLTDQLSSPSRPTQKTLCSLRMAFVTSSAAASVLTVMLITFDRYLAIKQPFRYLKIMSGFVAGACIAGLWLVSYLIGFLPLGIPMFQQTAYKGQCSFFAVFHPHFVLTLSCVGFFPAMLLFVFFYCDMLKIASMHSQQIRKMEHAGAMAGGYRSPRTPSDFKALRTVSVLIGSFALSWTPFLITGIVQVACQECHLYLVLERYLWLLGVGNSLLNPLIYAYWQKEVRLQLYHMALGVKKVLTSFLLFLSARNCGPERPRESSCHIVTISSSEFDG
- procedure.details: AlphaScreen cAMP assay in MIN6 cells stably transfected with human GPR119
- condition.notes: Min-6/hGPR119 cells, 45 min at room temperature
observable: EC50
Quick note: number first, unit second.

- compound: "CC(=O)NCc1ccc(-c2ncc(C(=O)N(C3CC3)C3CCN(C(=O)OC(C)(C)C)CC3)cn2)cc1 [Example 87]"
  test.system: "human GPR119 (Homo sapiens, UniProt Q8TDV5)"
  measured.value: "443 nM"
- compound: "CC(C)(C)OC(=O)N1CCC(N(C(=O)c2cnc(-c3ccc(CC#N)cc3)nc2)C2CC2)CC1 [Example 78]"
  test.system: "human GPR119 (Homo sapiens, UniProt Q8TDV5)"
  measured.value: "9 nM"
- compound: "Cn1cc(-c2ccc(C(=O)N(C3CC3)C3CCN(C(=O)OC(C)(C)C)CC3)cn2)ccc1=O [Example 4]"
  test.system: "human GPR119 (Homo sapiens, UniProt Q8TDV5)"
  measured.value: "1460 nM"
- compound: "CC(O)c1cccc(NC(=O)Cc2ccc(-c3ncc(C(=O)N(C4CC4)C4CCN(C(=O)OC(C)(C)C)CC4)cn3)cc2)c1 (stereo not shown) [Example 210]"
  test.system: "human GPR119 (Homo sapiens, UniProt Q8TDV5)"
  measured.value: "593 nM"
- compound: "Cc1noc(C)c1-c1ccc(C(=O)N(C2CC2)C2CCN(C(=O)OC(C)(C)C)CC2)cn1 [Example 11]"
  test.system: "human GPR119 (Homo sapiens, UniProt Q8TDV5)"
  measured.value: "136 nM"

Ask: Could you share which EC50 value was measured for CC(C)(C)OC(=O)N1CCC(N(C(=O)c2cnc(-c3ccc(C(=O)NCc4cccnc4)cc3)nc2)C2CC2)CC1 [Example 229] ?
Reply: 177 nM

Ask: Could you share which EC50 value was measured for CC(O)c1cccc(NC(=O)c2ccc(-c3ncc(C(=O)N(C4CC4)C4CCN(C(=O)OC(C)(C)C)CC4)cn3)cc2F)c1 (stereo not shown) [Example 150] ?
Reply: 238 nM

Ask: Could you share which EC50 value was measured for Cc1ccc(-c2ncc(C(=O)N(C3CC3)C3CCN(C(=O)OC(C)(C)C)CC3)cn2)cn1 [Example 89] ?
Reply: 240 nM

Ask: Could you share which EC50 value was measured for COCCN(C)C(=O)Cc1ccc(-c2ncc(C(=O)N(C3CC3)C3CCN(C(=O)OC(C)(C)C)CC3)cn2)cc1 [Example 195] ?
Reply: 486 nM

Ask: Could you share which EC50 value was measured for CC(C)(C)OC(=O)N1CCC(N(C(=O)c2cnc(-c3ccc(C(=O)NCc4cncnc4)c(F)c3)nc2)C2CC2)CC1 [Example 162] ?
Reply: 501 nM

====

- test.system: human GPR119 (Homo sapiens)
- Construct: expression vector for human GPR119 cDNA (Acc. No. NP_848566); Min-6/hGPR119
- Sequence (Q8TDV5 1-335): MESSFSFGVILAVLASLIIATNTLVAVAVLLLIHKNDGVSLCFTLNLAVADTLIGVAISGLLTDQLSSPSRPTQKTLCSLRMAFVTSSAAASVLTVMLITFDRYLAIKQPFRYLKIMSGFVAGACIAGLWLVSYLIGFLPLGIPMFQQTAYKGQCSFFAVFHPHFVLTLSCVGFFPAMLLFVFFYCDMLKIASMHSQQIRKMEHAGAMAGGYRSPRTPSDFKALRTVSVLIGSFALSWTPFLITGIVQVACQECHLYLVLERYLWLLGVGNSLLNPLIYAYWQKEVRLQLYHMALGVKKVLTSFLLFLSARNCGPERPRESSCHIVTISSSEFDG
- procedure.details: AlphaScreen cAMP assay in MIN6 cells stably transfected with human GPR119
- condition.notes: Min-6/hGPR119 cells, 45 min at room temperature
observable: EC50 (nM)
# number only, unit nM dropped from output

Study these solved cases before continuing.
- smiles.repr: "CC(C)(C)OC(=O)N1CCC(N(C(=O)c2cc(-c3ccc([N+](=O)[O-])cc3)[nH]n2)C2CC2)CC1"
  display.unit: "nM"
  EC50: 1170
- smiles.repr: "CC(C)(C)OC(=O)N1CCC(N(C(=O)c2cnc(-c3ccc(C(=O)NCc4cocn4)cc3)nc2)C2CC2)CC1"
  display.unit: "nM"
  EC50: 379
- smiles.repr: "CC(C)(C)OC(=O)N1CCC(N(C(=O)c2cnc(-c3ccc(C#N)c(F)c3)nc2)C2CC2)CC1"
  display.unit: "nM"
  EC50: 8
- smiles.repr: "CC(C)(C)OC(=O)N1CCC(N(C(=O)c2coc(-c3ccc(C#N)cc3)n2)C2CC2)CC1"
  display.unit: "nM"
  EC50: 118

Ask: Form entry - test system: human GPR119 (Homo sapiens); read-out: EC50; compound: CC(C)(C)OC(=O)N1CCC(N(C(=O)c2ccc(-c3cn[nH]c3)nc2)C2CC2)CC1
Reply: 204

Ask: Form entry - test system: human GPR119 (Homo sapiens); read-out: EC50; compound: CO[C@@H]1CCN(C(=O)c2ccc(-c3ncc(C(=O)N(C4CC4)C4CCN(C(=O)OC(C)(C)C)CC4)cn3)cc2F)C1
Reply: 129

Ask: Form entry - test system: human GPR119 (Homo sapiens); read-out: EC50; compound: CC(C)(C)OC(=O)N1CCC(N(C(=O)c2cnc(-c3ccc(C(=O)N4CCC[C@H]4C#N)c(F)c3)nc2)C2CC2)CC1
Reply: 180

Ask: Form entry - test system: human GPR119 (Homo sapiens); read-out: EC50; compound: Cc1cnc(CNC(=O)c2ccc(-c3ncc(C(=O)N(C4CC4)C4CCN(C(=O)OC(C)(C)C)CC4)cn3)cc2F)s1
Reply: 64

Ask: Form entry - test system: human GPR119 (Homo sapiens); read-out: EC50; compound: CN(CC#N)C(=O)c1ccc(-c2ncc(C(=O)N(C3CC3)C3CCN(C(=O)OC(C)(C)C)CC3)cn2)cc1
Reply: 110

====

- test.system: human GPR119 (Homo sapiens, UniProt Q8TDV5)
- Construct: expression vector for human GPR119 cDNA (Acc. No. NP_848566); expressed in transfected cells; Min-6/hGPR119
- Sequence (Q8TDV5 1-335): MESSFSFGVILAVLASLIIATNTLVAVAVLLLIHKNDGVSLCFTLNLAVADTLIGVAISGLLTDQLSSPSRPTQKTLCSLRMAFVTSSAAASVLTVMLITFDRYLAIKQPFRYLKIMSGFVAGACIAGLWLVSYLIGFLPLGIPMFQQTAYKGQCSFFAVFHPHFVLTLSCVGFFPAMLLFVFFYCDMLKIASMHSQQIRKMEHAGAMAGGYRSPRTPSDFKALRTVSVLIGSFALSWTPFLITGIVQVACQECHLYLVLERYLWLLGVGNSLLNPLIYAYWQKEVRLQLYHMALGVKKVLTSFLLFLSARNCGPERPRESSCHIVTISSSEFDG
- procedure.details: AlphaScreen cAMP assay in MIN6 cells stably transfected with human GPR119
- Format: cell-based
- condition.notes: Min-6/hGPR119 cells, 45 min at room temperature
observable: pEC50
Note on pEC50: it is the negative log10 of concentration, concentration in mol/L.

Study these solved cases before continuing.
- compound: "CN(CCOCC1CC1)C(=O)c1ccc(-c2ncc(C(=O)N(C3CC3)C3CCN(C(=O)OC(C)(C)C)CC3)cn2)cc1F [Example 124]"
  pEC50: 6.99
- compound: "CO[C@@H]1CCN(C(=O)Cc2ccc(-c3ncc(C(=O)N(C4CC4)C4CCN(C(=O)OC(C)(C)C)CC4)cn3)cc2)C1 [Example 194]"
  pEC50: 6.49
- compound: "COCCNC(=O)c1ccc(-c2ncc(C(=O)N(C3CC3)C3CCN(C(=O)OC(C)(C)C)CC3)cn2)cc1 [Example 243]"
  pEC50: 6.51
- compound: "CC(C)(C)OC(=O)N1CCC(N(C(=O)c2cnc(-c3ccc(C(=O)Nc4ccccc4)cc3)nc2)C2CC2)CC1 [Example 183]"
  pEC50: 7.20

Ask: Could you share which pEC50 value was measured for COC[C@@H]1CCCN1C(=O)Cc1ccc(-c2ncc(C(=O)N(C3CC3)C3CCN(C(=O)OC(C)(C)C)CC3)cn2)cc1 [Example 212] ?
Reply: 6.46
